The reported measurements were obtained from ChEMBL document CHEMBL5625212.

test: Proteolytic stability of the compound in human serum assessed as drug degradation measured after 24 hrs by RP-HPLC analysis; type: ADME, cell-free; details: read-out: Drug degradation
Endpoint name: metabolised at 24 h (%)
Kindly provide the numeric value in % only, without the unit symbol.

## Task # input molecule: `CCCCCCCCCC(=O)N[C@H](CNC(=O)N[C@@H](CCN)CNC(=O)N[C@H](CN[C@H](CNC(=O)N[C@@H](CCN)CNC(N)=O)CC(C)C)CC(C)C)Cc1ccccc1` ; wanted: its metabolised at 24 h
## Result 4

---

assay: Proteolytic stability of the compound in human serum assessed as drug degradation measured after 96 hrs by RP-HPLC analysis; assay type: ADME, cell-free; conditions: read-out: Drug degradation
Give metabolised at 96 h for every item shown.

## Task # input molecule: `CCCCCCCCCC(=O)N[C@H](CNC(=O)N[C@@H](CCN)CNC(=O)N[C@@H](CCN)CN[C@H](CNC(=O)N[C@@H](CCN)CNC(N)=O)CC(C)C)Cc1ccccc1` ; wanted: its metabolised at 96 h
## Result 8%

## Task One more molecule: `CCCCCCCCCC(=O)N[C@H](CNC(=O)N[C@@H](CCN)CNC(=O)N[C@H](CN[C@H](CNC(=O)N[C@@H](CCN)CNC(N)=O)CC(C)C)CC(C)C)Cc1ccccc1`
## Result 8%

## Task One more molecule: `CCCCCCCCCC(=O)N[C@H](CNC(=O)N[C@@H](CCN)CNC(=O)N[C@@H](CCN)CN[C@H](CNC(=O)N[C@H](CNC(N)=O)CC(C)C)CC(C)C)Cc1ccccc1`
## Result 8%

## Task One more molecule: `CCCCCCCCCC(=O)N[C@H](CNC(=O)N[C@@H](CCCCN)CNC(=O)N[C@@H](CCCCN)CN[C@H](CNC(=O)N[C@@H](CCCCN)CNC(N)=O)CC(C)C)Cc1ccccc1`
## Result 15%
